# targetOfAssay: 72 kDa type IV collagenase (Homo sapiens)
# Sequence (P08253 whole entry): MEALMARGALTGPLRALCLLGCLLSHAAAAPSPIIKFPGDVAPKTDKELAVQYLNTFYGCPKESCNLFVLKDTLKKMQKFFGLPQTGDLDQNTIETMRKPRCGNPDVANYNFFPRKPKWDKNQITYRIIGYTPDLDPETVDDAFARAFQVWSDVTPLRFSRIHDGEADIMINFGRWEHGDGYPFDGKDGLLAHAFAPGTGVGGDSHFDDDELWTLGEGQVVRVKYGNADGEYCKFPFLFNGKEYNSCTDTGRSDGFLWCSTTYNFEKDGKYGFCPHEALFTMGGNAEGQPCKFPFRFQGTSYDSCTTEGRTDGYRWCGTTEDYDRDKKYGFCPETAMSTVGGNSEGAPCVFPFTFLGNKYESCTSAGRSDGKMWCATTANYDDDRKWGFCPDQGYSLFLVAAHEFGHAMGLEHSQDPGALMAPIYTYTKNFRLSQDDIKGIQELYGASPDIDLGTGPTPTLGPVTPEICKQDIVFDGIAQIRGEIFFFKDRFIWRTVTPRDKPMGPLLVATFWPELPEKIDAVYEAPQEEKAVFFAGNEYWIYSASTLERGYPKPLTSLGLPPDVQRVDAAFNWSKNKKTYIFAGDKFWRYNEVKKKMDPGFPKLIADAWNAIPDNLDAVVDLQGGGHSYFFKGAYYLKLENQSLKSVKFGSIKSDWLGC
pIC50: −log10 of the molar value.
satisfied means recorded pIC50 is 6 or above; not satisfied means it is below 6.

C=CC[C@H](C(=O)NO)N(Cc1cccnc1)S(=O)(=O)c1ccc(OC)cc1: satisfied
C=CC[C@H](C(=O)O)N(Cc1cccnc1)S(=O)(=O)c1ccc(OC)cc1: not satisfied
C=C(F)C[C@H](C(=O)NO)N(Cc1cccnc1)S(=O)(=O)c1ccc(OC)cc1: satisfied

Dear colleague, could you confirm whether `C=CC[C@@H](C(=O)NO)N(Cc1cccnc1)S(=O)(=O)c1ccc(OC)cc1` has pIC50 at or above 6? satisfied

Dear colleague, could you confirm whether `C=C(F)C[C@@H](C(=O)O)N(Cc1cccnc1)S(=O)(=O)c1ccc(OC)cc1` has pIC50 at or above 6? not satisfied

Dear colleague, could you confirm whether `C=C(F)C[C@@H](C(=O)NO)N(Cc1cccnc1)S(=O)(=O)c1ccc(OC)cc1` has pIC50 at or above 6? satisfied

Dear colleague, could you confirm whether `C=CC[C@@H](C(=O)O)N(Cc1cccnc1)S(=O)(=O)c1ccc(OC)cc1` has pIC50 at or above 6? not satisfied

Dear colleague, could you confirm whether `COc1ccc(S(=O)(=O)N(Cc2cccnc2)[C@H](CCF)C(=O)O)cc1` has pIC50 at or above 6? not satisfied
